Assay: Pharmacokinetic analysis in mice
Type: in vivo
Conditions: mouse, serum, 200 mg/Kg IP, Tween80/DMSO
QUANTITY: AUC(0-t)
Record the result as a number with its unit.

// query AUC(0-t) value for entry CCOc1ccc2cc(C3CC(c4ccc(Br)cc4)=NN3C(=O)CCC(=O)O)c(Cl)nc2c1 (stereo not shown) 577 µg·h/mL

====

Assay: Pharmacokinetic analysis in mice
Type: in vivo
Conditions: mouse, serum, 200 mg/Kg PO, Methylcellulose/DMSO
QUANTITY: half-life
Put down the number, then write its unit next to it.

State the recorded half-life for this entry: CCOc1ccc2cc(C3CC(c4ccc(Br)cc4)=NN3C(=O)CCC(=O)O)c(Cl)nc2c1 (stereo not shown) [TDRL-505] 2.62 h

====

Assay: Pharmacokinetic analysis in mice
Type: in vivo
Settings: mouse, serum, 200 mg/Kg PO, Methylcellulose/DMSO
QUANTITY: AUC(0-t) (ng·h/mL)
Numbers only, in ng·h/mL.

AUC(0-t) for CCOc1ccc2cc(C3CC(c4ccc(Br)cc4)=NN3C(=O)CCC(=O)O)c(Cl)nc2c1 (stereo not shown) ? 25000

====

Assay: Pharmacokinetic analysis in mice
Format: in vivo
Conditions: mouse, serum, 200 mg/Kg IP, Tween80/DMSO
QUANTITY: half-life (h)
One number for each entry, in h.

I am curious: what half-life value has been reported for CCOc1ccc2cc(C3CC(c4ccc(Br)cc4)=NN3C(=O)CCC(=O)O)c(Cl)nc2c1 (stereo not shown) [TDRL-505] ? 7.13

====

Target: UniProt:P27694
Sequence (P27694 whole entry): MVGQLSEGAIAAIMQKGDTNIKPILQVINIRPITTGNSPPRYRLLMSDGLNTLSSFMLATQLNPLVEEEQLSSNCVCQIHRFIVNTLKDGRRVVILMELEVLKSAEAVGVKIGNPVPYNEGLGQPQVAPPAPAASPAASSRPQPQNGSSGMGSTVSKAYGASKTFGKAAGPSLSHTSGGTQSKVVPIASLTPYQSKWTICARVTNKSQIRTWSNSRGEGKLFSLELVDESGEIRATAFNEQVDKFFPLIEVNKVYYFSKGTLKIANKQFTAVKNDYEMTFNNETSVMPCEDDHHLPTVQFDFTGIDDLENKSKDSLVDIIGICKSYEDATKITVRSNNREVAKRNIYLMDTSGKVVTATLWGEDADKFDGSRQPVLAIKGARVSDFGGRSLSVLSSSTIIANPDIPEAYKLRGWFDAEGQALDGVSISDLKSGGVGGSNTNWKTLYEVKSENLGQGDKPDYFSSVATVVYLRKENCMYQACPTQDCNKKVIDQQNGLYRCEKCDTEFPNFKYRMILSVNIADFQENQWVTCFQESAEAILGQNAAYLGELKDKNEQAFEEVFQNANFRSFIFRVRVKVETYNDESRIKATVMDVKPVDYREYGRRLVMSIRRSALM
Sequence (P15927 whole entry partner): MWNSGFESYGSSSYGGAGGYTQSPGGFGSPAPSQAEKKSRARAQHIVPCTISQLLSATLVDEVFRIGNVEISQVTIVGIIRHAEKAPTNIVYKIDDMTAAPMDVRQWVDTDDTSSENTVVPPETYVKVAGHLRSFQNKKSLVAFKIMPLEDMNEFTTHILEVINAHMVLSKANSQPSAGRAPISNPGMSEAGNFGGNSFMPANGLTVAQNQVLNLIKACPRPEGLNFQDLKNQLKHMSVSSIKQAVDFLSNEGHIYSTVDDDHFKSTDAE
Sequence (P35244 whole entry partner): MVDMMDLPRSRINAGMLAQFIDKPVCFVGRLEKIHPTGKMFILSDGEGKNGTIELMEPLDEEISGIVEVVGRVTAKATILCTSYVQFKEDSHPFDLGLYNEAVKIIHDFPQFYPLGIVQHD
Assay: EMSA of inhibition of RPA binding to ssDNA
Details: 25 nM RPA, 34-base DNA, 4 parameter logistic fit, read-out: IC50 (μM) In vitro
Procedure: Small molecule inhibitors were obtained from ChemDiv and resuspended in DMSO. Compound TDLR-505 was independently synthesized and structure confirmed by mass spectrometry analysis. […] Referring now to TABLE 1, the in vitro IC50 was determined by EMSA analysis as described in FIG. 1A. The cellular IC50 value was determined by treating H460 cells with the indicated compounds and analyzing annexinV/PI staining as described in Methods. […]
Exercise: state measured IC50 for each of the compounds provided.
Numbers only, in µM.

# COMPOUND, RECORDED_MEASUREMENT
rows = [
    ("COc1ccc(C2=NN(C(=O)CCC(=O)O)C(c3cn(-c4ccccc4)nc3-c3ccc(C)cc3)C2)cc1 (centres unmarked) [TDRL-521]", 71.7),
]

// for each compound below, give its IC50
1. Cc1ccc(C2=NN(C(=O)CCC(=O)O)C(c3cn(-c4ccccc4)nc3-c3ccc(C)cc3)C2)cc1 (centres unmarked) [TDRL-520]
2. Cc1ccc(-c2nn(-c3ccccc3)cc2C2CC(c3ccc(Br)cc3)=NN2C(=O)CCC(=O)O)cc1 (centres unmarked) [TDRL-522]

[20.3, 56.1]

====

Experiment: Pharmacokinetic analysis in mice
Format: in vivo
Conditions: mouse, serum, 200 mg/Kg PO, Methylcellulose/DMSO
QUANTITY: Tmax (h)
One number for each entry, in h.

Suppose we examine the compound CCOc1ccc2cc(C3CC(c4ccc(Br)cc4)=NN3C(=O)CCC(=O)O)c(Cl)nc2c1 (stereo not shown) ; what Tmax value has been reported? 1

Data provenance is patent US9533969B2.
